measured.target: T1, IL-18 receptor (IL-18Rα/IL-18Rβ) on cells (HEK-Blue IL18R reporter cells, NK-92, KG-1) (human, UniProt Q13478 19-541; O95256 20-599)
T1 sequence (looked up) 1: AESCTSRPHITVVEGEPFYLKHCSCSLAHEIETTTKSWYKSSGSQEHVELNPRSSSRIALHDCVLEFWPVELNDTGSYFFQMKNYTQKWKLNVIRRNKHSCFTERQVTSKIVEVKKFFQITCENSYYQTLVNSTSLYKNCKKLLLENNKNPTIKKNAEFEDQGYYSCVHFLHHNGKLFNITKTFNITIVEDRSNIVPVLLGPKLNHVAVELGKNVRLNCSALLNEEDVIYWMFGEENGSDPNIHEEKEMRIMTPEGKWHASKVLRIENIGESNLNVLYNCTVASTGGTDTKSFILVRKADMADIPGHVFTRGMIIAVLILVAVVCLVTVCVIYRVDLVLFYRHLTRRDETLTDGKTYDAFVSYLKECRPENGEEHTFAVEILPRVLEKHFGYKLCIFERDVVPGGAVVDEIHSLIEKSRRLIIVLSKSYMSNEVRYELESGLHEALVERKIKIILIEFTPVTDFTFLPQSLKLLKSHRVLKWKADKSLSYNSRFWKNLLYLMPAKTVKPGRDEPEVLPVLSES
T1 sequence (looked up) 2: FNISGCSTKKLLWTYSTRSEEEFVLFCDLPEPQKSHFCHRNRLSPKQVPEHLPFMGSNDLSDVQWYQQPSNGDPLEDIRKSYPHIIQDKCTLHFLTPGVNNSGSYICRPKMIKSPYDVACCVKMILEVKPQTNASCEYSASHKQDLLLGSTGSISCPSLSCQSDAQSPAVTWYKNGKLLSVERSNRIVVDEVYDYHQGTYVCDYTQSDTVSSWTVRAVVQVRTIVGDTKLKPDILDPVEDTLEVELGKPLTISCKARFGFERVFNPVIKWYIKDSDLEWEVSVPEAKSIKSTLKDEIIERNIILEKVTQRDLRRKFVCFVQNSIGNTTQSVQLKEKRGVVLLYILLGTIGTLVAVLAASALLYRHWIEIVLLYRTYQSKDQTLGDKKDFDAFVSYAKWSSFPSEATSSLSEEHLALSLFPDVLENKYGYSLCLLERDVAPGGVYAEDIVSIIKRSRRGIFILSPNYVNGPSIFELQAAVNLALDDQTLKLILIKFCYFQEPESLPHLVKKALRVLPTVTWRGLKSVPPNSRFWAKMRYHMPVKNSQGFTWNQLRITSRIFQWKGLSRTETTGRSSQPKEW
test: cell-based or functional assay
quantity: EC50, IFNγ stimulation, NK92 cells (nM)
Report only the number, with the unit nM understood.

binder	EC50, IFNγ stimulation, NK92 cells [nM]
IL-18 polypeptide C153 (ligand, also called V11I, D37A, C38A, K53A, C76A, C127A) YFGKLESKLSIIRNLNDQVLFIDQGNRPLFEDMTDSAARDNAPRTIFIISMYADSQPRGMAVTISVKCEKISTLSAENKIISFKEMNPPDNIKDTKSDIIFFQRSVPGHDNKMQFESSSYEGYFLAAEKERDLFKLILKKEDELGDRSIMFTVQNED	0.175

Entry under test: IL-18 polypeptide C150 (ligand, also called V11I, T34A, C38A, K53A, C76A, C127A) YFGKLESKLSIIRNLNDQVLFIDQGNRPLFEDMADSDARDNAPRTIFIISMYADSQPRGMAVTISVKCEKISTLSAENKIISFKEMNPPDNIKDTKSDIIFFQRSVPGHDNKMQFESSSYEGYFLAAEKERDLFKLILKKEDELGDRSIMFTVQNED . Its EC50, IFNγ stimulation, NK92 cells was 0.015

// EC50, IFNγ stimulation, NK92 cells value for IL-18 polypeptide C163 (ligand, also called V11I, C38A, C76A, Q103K, C127A) YFGKLESKLSIIRNLNDQVLFIDQGNRPLFEDMTDSDARDNAPRTIFIISMYKDSQPRGMAVTISVKCEKISTLSAENKIISFKEMNPPDNIKDTKSDIIFFKRSVPGHDNKMQFESSSYEGYFLAAEKERDLFKLILKKEDELGDRSIMFTVQNED : 0.093

Sample IL-18 polypeptide of SEQ ID NO: 55 (K53A, T63A, C38S, C68S, C76S, C127S, K70C) (ligand) YFGKLESKLSVIRNLNDQVLFIDQGNRPLFEDMTDSDSRDNAPRTIFIISMYADSQPRGMAVAISVKSECISTLSSENKIISFKEMNPPDNIKDTKSDIIFFQRSVPGHDNKMQFESSSYEGYFLASEKERDLFKLILKKEDELGDRSIMFTVQNED ; EC50, IFNγ stimulation, NK92 cells observed: 17.2

The recorded EC50, IFNγ stimulation, NK92 cells for entry IL-18 polypeptide C156 (ligand, also called V11I, C38A, N41A, K53A, C76A, C127A) YFGKLESKLSIIRNLNDQVLFIDQGNRPLFEDMTDSDARDAAPRTIFIISMYADSQPRGMAVTISVKCEKISTLSAENKIISFKEMNPPDNIKDTKSDIIFFQRSVPGHDNKMQFESSSYEGYFLAAEKERDLFKLILKKEDELGDRSIMFTVQNED equals 0.558

// sample IL-18 polypeptide C157 (ligand, also called V11I, C38A, K53A, C76A, C127A, D132A) YFGKLESKLSIIRNLNDQVLFIDQGNRPLFEDMTDSDARDNAPRTIFIISMYADSQPRGMAVTISVKCEKISTLSAENKIISFKEMNPPDNIKDTKSDIIFFQRSVPGHDNKMQFESSSYEGYFLAAEKERALFKLILKKEDELGDRSIMFTVQNED , its EC50, IFNγ stimulation, NK92 cells was 0.056

So for IL-18 polypeptide of SEQ ID NO: 4 (E6K, C38A, K53A, C68A, M86C) (ligand) YFGKLKSKLSVIRNLNDQVLFIDQGNRPLFEDMTDSDARDNAPRTIFIISMYADSQPRGMAVTISVKAEKISTLSCENKIISFKECNPPDNIKDTKSDIIFFQRSVPGHDNKMQFESSSYEGYFLACEKERDLFKLILKKEDELGDRSIMFTVQNED , the logged EC50, IFNγ stimulation, NK92 cells turned out to be 0.022
